Examples of binders with documented pKd follow.
Biological target: T1, recombinant human IL-1β (human, UniProt P01584 117-269)
T1 construct: Only the background speaks of the mature 17 kDa form; also called hIL-1β; interleukin-1β
Assay: BIAcore, antibody captured by anti-hFc, IL-1β titrated in solution, 25 °C
For clarity, pKd is expressed as the negative log10 of concentration in mol/L.

Here are 7 binders together with their reported answers.
CDR-grafted IC8 antibody gH3gL1 (antibody, V domains shown, Human gamma-4 heavy and kappa light constant regions (pMRR14 and pMRR10), expressed in CHO-L761 cells) VH: EVQLVESGGGLVQPGGSLRLSCAASGFDFSRYDMSWVRQAPGKRLEWVAYISSGGGSTYFPDTVKGRFTISRDNAKNTLYLQMNSLRAEDTAVYYCARQNKKLTWFDYWGQGTLVTVSS VL: DIQMTQSPSSLSASVGDRVTITCRTSGNIHNYLTWYQQKLGKAPQLLVYNAKTLADGVPSRFSGSGSGTQFTLTISSLQPEDFANYYCQHFWSLPFTFGQGTKVEIKR :: 9.55
double chimeric IC8 antibody molecule cHcL (antibody, V domains shown, Murine IC8 V-regions on human gamma-4 heavy and human kappa light constant regions (vectors pMRR14 and pMRR10), expressed in CHO-L761 cells) VH: DVQLVESGGGLVKPGGSLKLSCAASGFDFSRYDMSWVRQTPEKRLEWVAYISSGGGSTYFPDTVKGRFTISRDNAKNTLYLQMNNLQSEDTAMFYCARQNKKLTWFDYWGQGTLVTVSS VL: DIQMTQSPASLSASVGETVTITCRTSGNIHNYLTWYQQNLGKSPQLLVYNAKTLADGVPSRFSGSGSGTQFSLTINSLQPEDFGNYYCQHFWSLPFTFGSGTKLEIKR :: 9.42
CDR-grafted IC8 antibody gH3gL3 (antibody, V domains shown, Human gamma-4 heavy and kappa light constant regions (pMRR14 and pMRR10), expressed in CHO-L761 cells; also called gL3gH3) VH: EVQLVESGGGLVQPGGSLRLSCAASGFDFSRYDMSWVRQAPGKRLEWVAYISSGGGSTYFPDTVKGRFTISRDNAKNTLYLQMNSLRAEDTAVYYCARQNKKLTWFDYWGQGTLVTVSS VL: DIQMTQSPSSLSASVGDRVTITCRTSGNIHNYLTWYQQKPGKAPQLLIYNAKTLADGVPSRFSGSGSGTQFTLTISSLQPEDFANYYCQHFWSLPFTFGQGTKVEIKR :: 9.55
CDR-grafted IC8 antibody gH2gL1 (antibody, V domains shown, Human gamma-4 heavy and kappa light constant regions (pMRR14 and pMRR10), expressed in CHO-L761 cells) VH: EVQLVESGGGLVQPGGSLRLSCAASGFDFSRYDMSWVRQAPGKGLEWVAYISSGGGSTYFPDTVKGRFTISRDNAKNTLYLQMNSLRAEDTAMYYCARQNKKLTWFDYWGQGTLVTVSS VL: DIQMTQSPSSLSASVGDRVTITCRTSGNIHNYLTWYQQKLGKAPQLLVYNAKTLADGVPSRFSGSGSGTQFTLTISSLQPEDFANYYCQHFWSLPFTFGQGTKVEIKR :: 8.90
CDR-grafted IC8 antibody gH3gL2 (antibody, V domains shown, Human gamma-4 heavy and kappa light constant regions (pMRR14 and pMRR10), expressed in CHO-L761 cells) VH: EVQLVESGGGLVQPGGSLRLSCAASGFDFSRYDMSWVRQAPGKRLEWVAYISSGGGSTYFPDTVKGRFTISRDNAKNTLYLQMNSLRAEDTAVYYCARQNKKLTWFDYWGQGTLVTVSS VL: DIQMTQSPSSLSASVGDRVTITCRTSGNIHNYLTWYQQKPGKAPQLLVYNAKTLADGVPSRFSGSGSGTQFTLTISSLQPEDFANYYCQHFWSLPFTFGQGTKVEIKR :: 9.49
CDR-grafted IC8 antibody gH1gL3 (antibody, V domains shown, Human gamma-4 heavy and kappa light constant regions (pMRR14 and pMRR10), expressed in CHO-L761 cells) VH: EVQLVESGGGLVQPGGSLRLSCAASGFDFSRYDMSWVRQAPGKRLEWVAYISSGGGSTYFPDTVKGRFTISRDNAKNTLYLQMNSLRAEDTAMYYCARQNKKLTWFDYWGQGTLVTVSS VL: DIQMTQSPSSLSASVGDRVTITCRTSGNIHNYLTWYQQKPGKAPQLLIYNAKTLADGVPSRFSGSGSGTQFTLTISSLQPEDFANYYCQHFWSLPFTFGQGTKVEIKR :: 9.52
CDR-grafted IC8 antibody gH1gL2 (antibody, V domains shown, Human gamma-4 heavy and kappa light constant regions (pMRR14 and pMRR10), expressed in CHO-L761 cells) VH: EVQLVESGGGLVQPGGSLRLSCAASGFDFSRYDMSWVRQAPGKRLEWVAYISSGGGSTYFPDTVKGRFTISRDNAKNTLYLQMNSLRAEDTAMYYCARQNKKLTWFDYWGQGTLVTVSS VL: DIQMTQSPSSLSASVGDRVTITCRTSGNIHNYLTWYQQKPGKAPQLLVYNAKTLADGVPSRFSGSGSGTQFTLTISSLQPEDFANYYCQHFWSLPFTFGQGTKVEIKR :: 9.47

Consider now this further binder.
For record CDR-grafted IC8 antibody gH1gL1 (antibody, V domains shown, Human gamma-4 heavy and kappa light constant regions (pMRR14 and pMRR10), expressed in CHO-L761 cells) VH: EVQLVESGGGLVQPGGSLRLSCAASGFDFSRYDMSWVRQAPGKRLEWVAYISSGGGSTYFPDTVKGRFTISRDNAKNTLYLQMNSLRAEDTAMYYCARQNKKLTWFDYWGQGTLVTVSS VL: DIQMTQSPSSLSASVGDRVTITCRTSGNIHNYLTWYQQKLGKAPQLLVYNAKTLADGVPSRFSGSGSGTQFTLTISSLQPEDFANYYCQHFWSLPFTFGQGTKVEIKR the listed pKd is 9.46
